Record form. Attribute: ∆Tm. Fill in for each entry.
System Tested: DNMT1 (amino acids 621–1616) (Homo sapiens)
Construct: RFTS-lacking DNMT1, amino acids 621–1616; made in house
Sequence (P26358 621-1616): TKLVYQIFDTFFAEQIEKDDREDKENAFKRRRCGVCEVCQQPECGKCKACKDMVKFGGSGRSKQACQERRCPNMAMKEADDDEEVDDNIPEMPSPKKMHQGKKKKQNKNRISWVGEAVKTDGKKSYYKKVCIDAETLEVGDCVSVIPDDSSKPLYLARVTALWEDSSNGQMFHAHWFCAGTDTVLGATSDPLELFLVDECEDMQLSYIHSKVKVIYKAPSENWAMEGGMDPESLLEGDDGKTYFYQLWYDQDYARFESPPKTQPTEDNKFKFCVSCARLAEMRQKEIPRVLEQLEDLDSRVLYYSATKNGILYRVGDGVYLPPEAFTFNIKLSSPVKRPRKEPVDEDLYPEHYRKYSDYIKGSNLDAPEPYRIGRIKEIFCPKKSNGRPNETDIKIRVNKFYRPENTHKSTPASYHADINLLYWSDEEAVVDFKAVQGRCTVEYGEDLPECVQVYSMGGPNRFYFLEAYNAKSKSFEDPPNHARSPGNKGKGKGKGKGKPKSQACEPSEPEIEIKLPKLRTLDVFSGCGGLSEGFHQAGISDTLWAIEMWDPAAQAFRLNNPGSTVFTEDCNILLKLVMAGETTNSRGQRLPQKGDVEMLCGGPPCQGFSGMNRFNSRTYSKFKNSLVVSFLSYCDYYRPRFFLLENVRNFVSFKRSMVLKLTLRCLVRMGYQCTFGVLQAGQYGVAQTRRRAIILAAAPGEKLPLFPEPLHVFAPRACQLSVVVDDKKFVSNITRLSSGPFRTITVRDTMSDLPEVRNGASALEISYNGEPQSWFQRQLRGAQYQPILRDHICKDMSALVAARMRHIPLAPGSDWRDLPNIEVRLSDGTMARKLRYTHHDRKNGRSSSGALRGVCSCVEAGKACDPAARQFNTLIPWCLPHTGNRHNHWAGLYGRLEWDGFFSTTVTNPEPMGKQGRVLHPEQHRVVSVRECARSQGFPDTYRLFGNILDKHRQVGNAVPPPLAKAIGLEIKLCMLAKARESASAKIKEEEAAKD
Protocol Details: Differential scanning fluorimetry (DSF) assay
Format: binding
Protocol Conditions: shift versus DMSO control; 100 µM compound

Some solved entries appear below for comparison.
- Chemical String: "CC(=O)NCCc1ccc(O)c(-c2c(O)c(O)c3c(c2O)C(=O)c2c(cc(O)c(C(=O)O)c2C(=O)O)C3=O)c1"
  System Tested: "DNMT1 (amino acids 621–1616) (Homo sapiens)"
  Result: "+2.0 ºC"
- Chemical String: "Oc1cc(Cl)ccc1Oc1ccc(Cl)cc1Cl"
  System Tested: "DNMT1 (amino acids 621–1616) (Homo sapiens)"
  Result: "+1.0 ºC"

Lab note: next molecule to report on.
Item O=C1c2ccccc2C(=O)c2c1ccc(O)c2O : provide ∆Tm +2.0 ºC
